assay: NCI Yeast Anticancer Drug Screen. Data for the mlh1 rad18 strain (AID 175); settings: S. cerevisiae mlh1 rad18 strain growth inhibition; at 50.0 µM; active compounds read high
About 79,000 compounds went through this panel and 15% of them were active in at least one assay; those are over-represented in the sample as a whole. Calls of active or inactive are those of the source. No stated cut-off is given here; in the data, active means growth inhibition above about 70%; inactive means the rest.
Quick reference for growth inhibition among some compounds

Use these answered entries as a reference point.
COc1ccc2c(c1)CCCN2C(=N)c1ccc([N+](=O)[O-])cc1	-11.5% (inactive)
COc1ccc(-c2oc3ccc(C)cc3c(=O)c2O)cc1	-26.8% (inactive)
CC(C)(C)CC(C(=O)O)[Si](C)(C)C (stereo unspecified)	-9.7% (inactive)
CNc1nc(Cl)cc2nc(Cl)cn12	4.55% (inactive)
CCCCC(CC)CCC(O)CC(C)C (stereo unspecified)	5.25% (inactive)

// query For the compound BrC1CCC(OCc2ccccc2)C(OCc2ccccc2)C1 (stereo unspecified) , what growth inhibition is on record?
// result -0.95% (inactive)

// query For the compound Cc1cccc2c1Oc1ccccc1C2NC(=O)c1ccc([N+](=O)[O-])cc1 (stereo unspecified) , what growth inhibition is on record?
// result -18% (inactive)

// query For the compound N#Cc1c(-c2ccccc2)c(-c2ccccc2)cc2c(=O)c3ccc(Cl)cc3[nH]c12 , what growth inhibition is on record?
// result 2.4% (inactive)

====

Assay: NCI Yeast Anticancer Drug Screen. Data for the mec2-1 strain (AID 157)
Conditions: S. cerevisiae mec2-1 strain, at 50.0 µM
Procedure: Growth inhibition of yeast strains with defined genetic alterations is measured as a screen for potential anti-cancer activity. Selected strains with alterations in DNA damage repair or cell cycle control were exposed to compounds and growth inhibition was measured relative to vehicle treated controls. The strain used in this assay is mec2-1
This is part of a sample that, as a whole, favours compounds with a hit. Of some 79,000 tested, about 15% had one in any assay. The source made the active and inactive calls. Cut-off read from the data, not from the text of the source: active = growth inhibition above about 70%; inactive = the rest.
// one of active, inactive, no free text

c1ccc(CC(c2cccc3ccccc23)N2CCOCC2)cc1 (stereo unspecified)	inactive

// query Status in this test for CCOC(=O)Oc1ccc(C(=O)NCCC(C)C)cc1OCC ?
// result inactive

// query Status in this test for CC(C)[Si](OC1=C(c2ccccc2)C(NC(=O)/C=C/c2ccc([N+](=O)[O-])cc2)CCC1)(C(C)C)C(C)C (stereo unspecified) ?
// result inactive

// query Status in this test for COc1ccc(/C=C(\C2=NC(=O)CS2)c2nc3ccccc3[nH]2)cc1 ?
// result inactive

====

Quick reference for growth inhibition among some molecules
experiment: NCI Yeast Anticancer Drug Screen. Data for the mlh1 rad18 strain (AID 175); conditions: S. cerevisiae mlh1 rad18 strain growth inhibition; at 50.0 µM; active compounds read high
About 79,000 compounds went through this panel and 15% of them were active in at least one assay; those are over-represented in the sample as a whole.
The reply should be a number in %, with the unit left off.

Use these answered entries as a reference point.
COc1ccc(OCc2nc3cc(C(F)(F)F)ccc3nc2-c2ccccc2)cc1	-70.4
O=c1ccc(=O)n(-c2ccc(Cl)cc2)[nH]1	-9.9
CC(=O)Nc1ccc2ccccc2c1	1.4
O=S(=O)(Nc1ncccn1)c1ccc(N=NSC2=NC=NC3=NC=NC32)cc1 (centres undefined)	11.8
Cc1nc(=S)[nH][nH]1	1

// query For the molecule CC(=O)Nc1nc2c(s1)CCc1ccccc1-2 , what growth inhibition is on record?
// result 15.2

// query For the molecule Cn1c(COC(=O)Nc2ccccc2)c(COC(=O)Nc2ccccc2)c2ccc3cc(Cl)c(Cl)cc3c21 , what growth inhibition is on record?
// result -44

// query For the molecule COC(=O)C(=O)c1c(C(=O)OC)nc2[nH]n(-c3ccccc3)c(=O)c2c1Cc1ccccc1 , what growth inhibition is on record?
// result 8.25

// query For the molecule CCCCn1cc(C(=O)O)c(=O)c2c3sccc3ccc21 , what growth inhibition is on record?
// result -26.1

// query For the molecule O=C(O)C1C2C=CC(O2)C1C(=O)Nn1cccc1 (centres undefined) , what growth inhibition is on record?
// result -6.75

// query For the molecule COc1ccc(-n2c(=O)c(N=Nc3ccccc3)c(O)n(-c3ccccc3OC)c2=S)cc1 , what growth inhibition is on record?
// result 15.3

// query For the molecule Cc1ccc(C)c(NC(=O)C(=O)C(C#N)c2c(Cl)cccc2Cl)c1 (centres undefined) , what growth inhibition is on record?
// result 28.9

// query For the molecule CC(=O)OC1CC(c2ccccc2)N(C)C(c2ccccc2)C1 (centres undefined) , what growth inhibition is on record?
// result 10.6

// query For the molecule Nc1nc2c(-c3ccc([N+](=O)[O-])cc3)nnn2c2cccc(Cl)c12 , what growth inhibition is on record?
// result -14.7

// query For the molecule COC(=O)c1[nH]c(=O)c(C#N)c(C(=O)OC)c1-c1ccc(F)cc1 , what growth inhibition is on record?
// result -0.05

// query For the molecule O=C(O)C1CCCN1/N=C/c1cccc([N+](=O)[O-])c1 (centres undefined) , what growth inhibition is on record?
// result -11.3

// query For the molecule COc1ccc(C(=O)C[n+]2cc(Br)cc(Br)c2)cc1 , what growth inhibition is on record?
// result -8.95
